System: BasE (2,3-dihydroxybenzoate-AMP ligase), Acinetobacter baumannii ATCC 17978
measurement-notes: inhibitors of A. baumannii BasE – biochemical, Acinetobacter baumannii ATCC 17978, fluorescence polarization, primary screen (AID 485350);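 note: 0% = negative plate control signal and 100% = positive plate control signal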
run-conditions: purified BasE, fluorescence polarization binding displacement; active compounds read high; concentration not given here
Out of some 84,000 compounds screened, about 95 (0.1%) were called active. This is one part of a sample in which actives are shown more often than they occur.
So I've got a bunch of compounds here, and I need their inhibition values.
Hi! Could you send only the number? It should be in %, unit omitted.

Consider the compound `CCn1c(N2CCN(S(C)(=O)=O)CC2)nc2ccccc21` . State its measured inhibition. -0.64

Look up and report measured inhibition for this entry: `CCOCCCNc1nc2ccccc2nc1NS(=O)(=O)c1cccc2nsnc12` 0.69

Return reported inhibition. Input compound: Cc1ccc(N=C2C(=O)N(CN3CCCC(C)C3)c3ccccc32)cc1 (centres undefined) 0.38

Supply recorded inhibition for CC1CN(C(=O)COC(=O)c2cccc3ccccc23)CC(C)O1 (centres undefined) here. 1.48

Find the measured inhibition of `Cc1ccc(S(=O)(=O)N(C)CC(=O)O)cc1` and report it. 0.19

Find the measured inhibition of `O=C(CSc1nc2cc3c(cc2c(=O)n1Cc1ccc2c(c1)OCO2)OCO3)NCCc1ccccc1` and report it. 0.07

Please indicate inhibition recorded for `O=S(=O)(NCc1ccc2c(c1)OCO2)c1cccc2nsnc12` 0.67

Hello, please tell me recorded inhibition for this one: `O=C(O)c1cccnc1SCc1cc(=O)n2cc(Br)ccc2n1` 1.25

For the compound `O=C(c1cc(Cl)c(O)c(Cl)c1)N1CCc2ccccc2C1` , report inhibition. 3

Give inhibition for COC(=O)CCC1(C(=O)O)CCOC(C)(C)C1 (centres undefined) 0.97

Fill in reported inhibition for this entry: `NC(=O)C[n+]1cccc(C(N)=O)c1` -2.44

Return value of inhibition for input `CC(=O)NCCC(=O)Nc1nccs1` , no commentary. -1.55

Tell me measured inhibition for `COc1ccccc1OCCCn1cc(/C=C2/C(=N)N3C=CSC3=NC2=O)c2ccccc21` please. 2.49

Given `N#CCSc1[nH]c(=O)c(-c2nc(-c3ccccc3)cs2)cc1C#N` , respond with its inhibition. 1.84

Identify measured inhibition corresponding to `C=CCN(S(=O)(=O)c1ccc(Cl)cc1)S(=O)(=O)c1ccccc1OC` 5.47

Tell me its inhibition given `Cn1c(=O)c2c(SC/C(O)=C(\C#N)c3nc4ccccc4[nH]3)nc(C(C)(C)C)nc2n(C)c1=O` as the entry. 0.74

Dear colleague, please send me the reported inhibition for `COC(=O)c1ccc(/C=N/O)cc1` when you can. 1.3

Entry `N#CSc1ccc(N2CCCCC2)cc1` needs its inhibition filled in; supply it. 1.12

Identify the reported inhibition for the following entry. `COCCc1cc(C(F)(F)F)c2c(=O)n(C)c(=O)n(C)c2n1` -0.29

Give reported inhibition value for `Cc1ccc(/C=C/C(=O)OCC(=O)c2cc(C)c(C)cc2C)o1` 1.01

Consider the compound `CCOC(=O)c1sc(=NC(C)=O)n(C)c1C` . State its measured inhibition. -1.69

Tell me inhibition reported for `C/C(N)=C(/C#N)C(=O)CSc1n[nH]c(C(C)C)n1` 1.38

Please give the documented inhibition of `NC(=O)CSc1nnc(SCCOc2ccccc2)s1` 0.35

Consider the compound CC1CN(CC(=O)Nc2ccccc2C(C)C)CC(C)O1 (centres undefined) . State its measured inhibition. -1.49
